- target under test: BaF3_HER2WT cells (Homo sapiens, UniProt P04626)
- Sequence (P04626 whole entry, change not shown): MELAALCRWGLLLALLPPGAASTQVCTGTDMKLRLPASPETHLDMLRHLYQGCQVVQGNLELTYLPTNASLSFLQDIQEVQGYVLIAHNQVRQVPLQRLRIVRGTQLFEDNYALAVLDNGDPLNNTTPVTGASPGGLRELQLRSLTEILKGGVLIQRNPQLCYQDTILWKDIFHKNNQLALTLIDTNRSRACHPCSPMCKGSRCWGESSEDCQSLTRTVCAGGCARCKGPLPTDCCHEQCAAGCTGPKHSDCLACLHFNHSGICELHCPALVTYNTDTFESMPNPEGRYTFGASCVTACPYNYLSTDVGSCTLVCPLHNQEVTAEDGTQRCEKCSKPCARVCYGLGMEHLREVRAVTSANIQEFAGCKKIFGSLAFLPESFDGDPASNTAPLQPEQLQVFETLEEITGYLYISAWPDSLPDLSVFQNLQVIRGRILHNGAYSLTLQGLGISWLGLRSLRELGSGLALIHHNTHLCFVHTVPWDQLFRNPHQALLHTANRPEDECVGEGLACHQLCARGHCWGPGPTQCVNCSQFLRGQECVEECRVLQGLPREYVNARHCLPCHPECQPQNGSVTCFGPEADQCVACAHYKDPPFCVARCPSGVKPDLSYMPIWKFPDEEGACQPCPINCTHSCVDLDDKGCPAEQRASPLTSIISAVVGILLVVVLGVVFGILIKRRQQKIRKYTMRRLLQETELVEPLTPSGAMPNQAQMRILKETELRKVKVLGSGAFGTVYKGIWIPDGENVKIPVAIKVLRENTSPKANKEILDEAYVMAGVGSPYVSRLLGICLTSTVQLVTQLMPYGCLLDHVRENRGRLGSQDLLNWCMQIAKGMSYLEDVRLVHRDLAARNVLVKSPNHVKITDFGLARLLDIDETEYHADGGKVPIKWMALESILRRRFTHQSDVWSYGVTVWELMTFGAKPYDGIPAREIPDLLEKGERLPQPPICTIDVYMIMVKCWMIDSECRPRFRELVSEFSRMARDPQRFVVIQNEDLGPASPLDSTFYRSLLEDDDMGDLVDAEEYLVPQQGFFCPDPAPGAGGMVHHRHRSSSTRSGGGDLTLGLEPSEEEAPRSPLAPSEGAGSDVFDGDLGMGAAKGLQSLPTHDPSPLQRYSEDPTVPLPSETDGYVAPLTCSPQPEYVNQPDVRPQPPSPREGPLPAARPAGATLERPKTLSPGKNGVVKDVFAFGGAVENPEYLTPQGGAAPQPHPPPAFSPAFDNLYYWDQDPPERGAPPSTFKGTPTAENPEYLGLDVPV
- protocol description: Cell growth inhibition assay (CellTiterGlo), BaF3_HER2WT
- Format: cell-based
- protocol conditions: 3-day treatment, CellTiterGlo, read-out: Cell growth inhibition activity, HER2 WT
Where a name gives a salt, the structure may show the parent alone.
result type: GI50

INSERT INTO measurements (compound, result_type, result) VALUES
  ('COC/C=C/C(=O)N1CC(c2ccn3ncnc(Nc4ccc(Oc5ccn6ncnc6c5)c(C)c4)c23)C1 [Example 40]', 'GI50', '200 to 500 nM'),
  ('Cc1cc(Nc2ncnn3ccc(N4CCCC(N(C)C(=O)/C=C/CN(C)C)C4)c23)ccc1Oc1ccn2ncnc2c1 (stereo not drawn) [Example 68]', 'GI50', '< 200 nM'),
  ('Cc1cc(Nc2ncnn3ccc(C(=O)NCCCN(C)C)c23)ccc1N [Example 181]', 'GI50', '1500 to 5000 nM'),
  ('C=CC(=O)N1CC(c2ccn3ncnc(Nc4ccc(Oc5ccn6ncnc6c5)c(C)c4)c23)C1 [Example 3]', 'GI50', '< 200 nM'),
  ('C=CC(=O)N1CCN(c2ccn3ncnc(Nc4ccc(Oc5ccn6ncnc6c5)c(C)c4)c23)CC1 [Example 6]', 'GI50', '< 200 nM'),
  ('C=CC(=O)N1CCC2(C1)CN(c1ccn3ncnc(Nc4ccc(Oc5ccn6ncnc6c5)c(C)c4)c13)C2 [Example 155]', 'GI50', '< 200 nM'),
  ('CNC/C=C/C(=O)N1CC(c2ccn3ncnc(Nc4ccc(Oc5ccn6ncnc6c5)c(C)c4)c23)C1 [Example 151]', 'GI50', '< 200 nM'),
  ('Cc1cc(Nc2ncnn3ccc(C4CCN(C(=O)C5CC(=O)N5)CC4)c23)ccc1Oc1ccn2ncnc2c1 (stereo not drawn) [Example 36, acetate]', 'GI50', '1500 to 5000 nM'),
  ('C=CC(=O)NC1CN(c2ccn3ncnc(Nc4ccc(Oc5ccn6ncnc6c5)c(C)c4)c23)C1 [Example 14]', 'GI50', '< 200 nM'),
  ('CNC/C=C/C(=O)N1CC(c2ccn3ncnc(Nc4ccc(Oc5ccc6c(c5)ncn6C)c(C)c4)c23)C1 [Example 153]', 'GI50', '1500 to 5000 nM'),
  ('Cc1cc(Nc2ncnn3ccc(C4CCN(C(=O)/C=C/C5CCCN5C)CC4)c23)ccc1Oc1ccn2ncnc2c1 (stereo not drawn) [Example 65]', 'GI50', '< 200 nM'),
  ('CO[C@@H]1CN(C/C=C/C(=O)N2CCC(c3ccn4ncnc(Nc5ccc(Oc6ccn7ncnc7c6)c(C)c5)c34)CC2)C[C@H]1OC [Example 170]', 'GI50', '< 200 nM'),
  ('Cc1cc(Nc2ncnn3ccc(C(=O)NCCCN(C)C)c23)ccc1Oc1ccn2ncnc2c1 [Example 179, hydrochloride]', 'GI50', '200 to 500 nM'),
  ('Cc1cc(Nc2ncnn3ccc(N4CCC(N(C)C(=O)/C=C/CN(C)C)CC4)c23)ccc1Oc1ccn2ncnc2c1 [Example 73]', 'GI50', '< 200 nM'),
  ('Cc1cc(Nc2ncnn3ccc(C4CCCN(C(=O)/C=C/CN(C)C)C4)c23)ccc1Oc1ccn2ncnc2c1 (stereo not drawn) [Example 96]', 'GI50', '< 200 nM');

###

- target under test: BaF3_HER2WT cells (Homo sapiens, UniProt P04626)
- protocol description: Cell growth inhibition assay (CellTiterGlo), BaF3_HER2WT
- Format: cell-based
- protocol conditions: 3-day treatment, CellTiterGlo, read-out: Cell growth inhibition activity, HER2 WT
result type: GI50

INSERT INTO measurements (compound, target_under_test, result) VALUES
  ('Cc1cc(Nc2ncnn3ccc(C4CCN(C(=O)/C=C/CN(C)C)CC4)c23)ccc1Oc1ccc2c(c1)ncn2C [Example 133]', 'BaF3_HER2WT cells (Homo sapiens, UniProt P04626)', '< 200 nM'),
  ('Cc1cc(Nc2ncnn3ccc(N4CC5(CCN(C(=O)/C=C/CN(C)C)C5)C4)c23)ccc1Oc1ccn2ncnc2c1 [Example 156]', 'BaF3_HER2WT cells (Homo sapiens, UniProt P04626)', '200 to 500 nM'),
  ('Cc1cc(Nc2c(C#N)cnn3ccc(C4CN(C(=O)/C=C/CN(C)C)C4)c23)ccc1Oc1ccn2ncnc2c1 [Example 86]', 'BaF3_HER2WT cells (Homo sapiens, UniProt P04626)', '1500 to 5000 nM'),
  ('Cc1cc(Nc2ncnn3ccc(C4CCN(C(=O)/C=C/[C@H]5CCCN5C)CC4)c23)ccc1Oc1ccn2ncnc2c1 [Example 25]', 'BaF3_HER2WT cells (Homo sapiens, UniProt P04626)', '< 200 nM'),
  ('Cc1cc(Nc2ncnn3ccc(C4CN(C(=O)/C=C/CN5CCOCC5)C4)c23)ccc1Oc1ccn2ncnc2c1 [Example 37]', 'BaF3_HER2WT cells (Homo sapiens, UniProt P04626)', '< 200 nM'),
  ('Cc1cc(Nc2ncnn3ccc(C4CCN(C(=O)/C=C/CN)CC4)c23)ccc1Oc1ccn2ncnc2c1 [Example 150]', 'BaF3_HER2WT cells (Homo sapiens, UniProt P04626)', '500 to 1500 nM'),
  ('Cc1cc(Nc2ncnn3ccc(C4=CCN(C(=O)/C=C/CN(C)C)CC4)c23)ccc1Oc1ccn2ncnc2c1 [Example 53]', 'BaF3_HER2WT cells (Homo sapiens, UniProt P04626)', '< 200 nM');

The reported measurements were obtained from patent US20240132521A1.
